Molecular target: T1, ZFP SBS#817 (synthetic)
T1 chain: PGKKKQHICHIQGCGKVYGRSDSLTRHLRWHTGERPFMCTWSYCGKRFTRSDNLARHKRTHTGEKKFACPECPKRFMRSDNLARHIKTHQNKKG
Experiment: EMSA
Details: tags: MBP fusion
METRIC_NAME: pKd
Numbers only, as −log10 of the molar value.

query: Write down pKd measured for item GAGGAGGTGA (dsDNA) DNA 1: GAGGAGGTGA DNA 2: TCACCTCCTC
result: 9.51
